system: Matricaria inodora (MATIN); test: Herbicidal pre-emergence action (C), 320 g/ha; assay type: in vivo; conditions: ca. 3 weeks
measured-quantity: herbicidal effect MATIN (%)
Write the number in % without appending the unit.

Example molecules with recorded herbicidal effect MATIN:
CCc1cc2scnc2nc1-c1ccccc1 = 90
Clc1cc2scnc2nc1-c1ccsc1Cl = 80

So what does the record say about herbicidal effect MATIN for Cc1ccccc1-c1nc2ncsc2cc1C ?
90

Reported herbicidal effect MATIN, molecule Cc1cscc1-c1nc2ncsc2cc1C : ____
80

So what's the measured herbicidal effect MATIN for this one? Cc1cc2scnc2nc1-c1ccsc1C
90

###

Collected herbicidal activity DIGSA values appear next to each entry.
system: Digitaria sanguinalis (DIGSA); assay: Herbicidal post-emergence action (B), 1280 g/ha; type: in vivo; details: rated visually after about 3 weeks vs untreated controls
Express your answer in %, writing the number without its unit.

Use these answered entries as a reference point.
C=Cc1cc2scnc2nc1-c1ccccc1F = 90
CCc1cc2scnc2nc1-c1ccccc1F = 100
CCc1cc2scnc2nc1-c1ccccc1 = 100
Cc1cc2scnc2nc1-c1ccccc1 = 100
Fc1ccccc1-c1nc2ncsc2cc1C1CC1 = 100

Item Cc1cc2scnc2nc1-c1sccc1Cl has what recorded herbicidal activity DIGSA?
100

Looking for the measured herbicidal activity DIGSA of Cc1cc2sc(S)nc2nc1-c1cccc(F)c1 , can you help?
100

Request the reported herbicidal activity DIGSA associated with Fc1ccccc1-c1nc2ncsc2cc1Cl
100

Name the recorded herbicidal activity DIGSA for Cc1cc2scnc2nc1-c1cccc(F)c1 .
90

Bench note: what herbicidal activity DIGSA did CCc1cc2sc(S)nc2nc1-c1ccccc1F show?
100

Name the reported herbicidal activity DIGSA value associated with the compound CCc1cc2scnc2nc1-c1cccc(F)c1
100

Would you kindly share the measured herbicidal activity DIGSA for c1ccc(-c2ccc3scnc3n2)cc1 ?
100

Which herbicidal activity DIGSA value is on record for Fc1ccc(-c2ccc3scnc3n2)cc1 ?
100

###

test system: Kochia scoparia (KCHSC; Bassia scoparia); test: Herbicidal pre-emergence action (A), 1280 g/ha; format: in vivo; conditions: visual grading after ca. 3 weeks vs untreated controls
measured-quantity: herbicidal effect KCHSC (%)
Could you give me the number in %? Just the number is fine.

Cc1cc2sc(S(C)(=O)=O)nc2nc1-c1ccccc1F = 90
COc1ccccc1-c1nc2ncsc2cc1C = 100
CCc1cc2scnc2nc1-c1cccc(F)c1 = 100
CCc1cc2scnc2nc1-c1ccccc1C = 100

For the compound c1ccc(-c2ccc3scnc3n2)cc1 , what herbicidal effect KCHSC is on record?
90

Record request: herbicidal effect KCHSC value, item CCc1cc2scnc2nc1-c1ccccc1F
100

###

Property: herbicidal effect LOLRI; scope: individual molecules
System: Lolium rigidum (LOLRI)
Test: Herbicidal pre-emergence action (C), 320 g/ha
Type: in vivo
Conditions: ca. 3 weeks
Excerpt: ABUTH: Abutilon theophrasti AGSTE: Agrostis tenuis ALOMY: Alopecurus myosuroides AMARE Amaranthus retroflexus DIGSA: Digitaria sanguinalis ECHCG: Echinochloa crus-galli KCHSC: Kochia scoparia LOLRI: Lolium rigidum MATIN: Matricaria inodora POAAN: Poa annua POLCO: Polygonum convolvulus SETVI: Setaria viridis STEME: Stellaria media VERPE: Veronica persica VIOTR: Viola tricolor […]
Expressed in %, but write only the number.

Fc1cccc(-c2nc3ncsc3cc2Cl)c1F [Example I-114] = 100
Clc1cc2scnc2nc1-c1ccsc1Cl [Example I-190] = 100
CCc1cc2scnc2nc1-c1ccc(F)cc1F [Example I-030] = 100
CCCc1cc2scnc2nc1-c1ccccc1F [Example I-185] = 100
CCc1cc2scnc2nc1-c1cccc(F)c1 [Example I-029] = 100
Fc1ccccc1-c1nc2ncsc2cc1I [Example I-188] = 100
Fc1ccc(-c2nc3ncsc3cc2Cl)c(F)c1 [Example I-127] = 80
Cc1cscc1-c1nc2ncsc2cc1C [Example I-193] = 100

Data request, read-out herbicidal effect LOLRI, for Cc1cc2scnc2nc1C12CCCCC1O2 (stereo not shown) [Example I-151]
90

Param item = Cc1cc2scnc2nc1-c1ccsc1C [Example I-194] ; retrieve measured herbicidal effect LOLRI.
100

Can you share its herbicidal effect LOLRI? I mean this molecule: Cc1cc2scnc2nc1-c1sccc1C [Example I-143]
100

Which herbicidal effect LOLRI value belongs to Cc1ccsc1-c1nc2ncsc2cc1Br [Example I-132] ?
100

Would you mind telling me what herbicidal effect LOLRI value was observed for Fc1cccc(F)c1-c1nc2ncsc2cc1Cl [Example I-087] ?
100
